Provenance of the data: patent US11207312B2

Target: VIM-2 (Escherichia coli, UniProt Q5U7L7)
Assay: biochemical
Settings: CCF2-FA fluorescence assay; read-out: VIM2 IC50
PROPERTY: IC50 (nM)
Answer format: numeric, nM implied, no suffix.

Looking up NS(=O)(=O)c1c(S(=O)(=O)N[C@@H]2CCNC2)ccc(NC2CCOCC2)c1-c1nnn[nH]1 , I see its IC50 listed as 3.7

Looking up C[N+](C)(C)CCCCNc1ccc(S(=O)(=O)N[C@@H]2CCNC2)c(S(N)(=O)=O)c1-c1nnn[nH]1 , I see its IC50 listed as 6.04

Looking up NC[C@@H](O)CNS(=O)(=O)c1ccc(N2CC[C@H](N)C2)c(-c2nn[nH]n2)c1S(N)(=O)=O , I see its IC50 listed as 32.5
